molecular target: BCL6 (Homo sapiens (Human)); experiment: Immunofluorescence high content imaging of BCL6 degradation in T47D cells; format: cell-based; conditions: T47D cells
As shown below, each of these compounds has a reported IC50 value.

1. CNC(=O)COc1cc2cc(Nc3nc(N4CCN(CC5CCN(C(=O)c6cccc(N7CCC(=O)NC7=O)c6)CC5)CC4)ncc3Cl)ccc2n(C(C)C)c1=O [compound 407] = ≥ 100 nM

**Q:** Kindly indicate its recorded IC50. Item: CNC(=O)COc1cc2cc(Nc3nc(N4CCO[C@H](CCOc5ccc6c(c5)C(=O)N(C5CCC(=O)NC5=O)C6=O)C4)ncc3Cl)ccc2n(C(C)C)c1=O (stereo partly shown) [compound 379]
**A:** ≥ 100 nM

**Q:** Answer with reported IC50 of CNC(=O)COc1cc2cc(Nc3nc(N4CCN(CC5CCN(c6ccc7c(c6)C(=O)N(C6CCC(=O)NC6=O)C7=O)CC5)CC4)ncc3Cl)ccc2n(CCC2CC2)c1=O (stereo not shown) [compound 333]
**A:** < 10 nM

**Q:** Please report IC50 for the following compound: CNC(=O)COc1cc2cc(Nc3nc(N4CCC5(CC4)CN(CC4CCN(c6cccc7c6C(=O)N(C6CCC(=O)NC6=O)C7=O)CC4)C5)ncc3Cl)ccc2n(C(C)C)c1=O (stereo not shown) [compound 385]
**A:** < 10 nM

----------
target: UniProt P41182; test: Immunofluorescence high content imaging of BCL6 degradation in T47D cells; format: cell-based; conditions: T47D
Each entry below carries its recorded Dmax.

Previously resolved entries follow.
1. CCn1c(=O)c(OCC(=O)NC)cc2cc(Nc3nc(N4CCN(CC5CCN(c6ccc7c(c6)C(=O)N(C6CCC(=O)NC6=O)C7=O)CC5)CC4)ncc3Cl)ccc21 (stereo not drawn) [compound 250] = 50 to 70%
2. CC(=O)[C@H](C)Oc1cc2cc(Nc3nc(N4CCC(CN5CCN(c6ccc7c(c6)C(=O)N([C@@H]6CCC(=O)NC6=O)C7=O)CC5)CC4)ncc3Cl)ccc2n(C)c1=O [compound 219] = < 50%
3. CNC(=O)COc1cc2cc(Nc3nc(N4CCC(CN5CCC6(CC5)CCN(c5cccc7c5C(=O)N(C5CCC(=O)NC5=O)C7=O)C6)CC4)ncc3Cl)ccc2n(C(C)C)c1=O (stereo not drawn) [compound 512] = 50 to 70%

**Q:** Quickly give me recorded Dmax for CNC(=O)COc1cc2cc(Nc3nc(N4CCC(CN5CCC6(CCN(c7ccc8c(c7)C(=O)N(C7CCC(=O)NC7=O)C8=O)CC6)C5)CC4)ncc3Cl)ccc2n(C(C)C)c1=O (stereo not drawn) [compound 494]
**A:** 50 to 70%

**Q:** State its Dmax: CNC(=O)COc1cc2cc(Nc3nc(N4CCC(C(C)(C)N5CCN(c6ccc7c(c6)C(=O)N(C6CCC(=O)NC6=O)C7=O)CC5)CC4)ncc3Cl)ccc2n(C)c1=O (stereo not drawn) [compound 200]
**A:** 50 to 70%

**Q:** Complete the entry with Dmax for Cn1c(=O)n(CCC(C)(C)O)c2cc(Nc3nc(N4CCC(OC5CC6(CCN(c7cccc8c7C(=O)N(C7CCC(=O)NC7=O)C8=O)CC6)C5)CC4)ncc3Cl)ccc21 (stereo not drawn) [compound 493]
**A:** < 50%

----------
# key: entry, value: IC50
target: BCL6 (Homo sapiens (Human), UniProt P41182); test: Immunofluorescence high content imaging of BCL6 degradation in T47D cells; assay type: cell-based; conditions: T47D cells

1. CNC(=O)COc1cc2cc(Nc3nc(N4CCN(C(C)(C)C5CCN(c6ccc(C(=O)NC7CCC(=O)NC7=O)c(OC)c6)CC5)CC4)ncc3Cl)ccc2n(C)c1=O (stereo not drawn) [compound 315] = 10 to 50 nM
2. CNC(=O)COc1cc2cc(Nc3nc(N4CCC(CN5CC6(CCN(c7ccc8c(c7)CN(C7CCC(=O)NC7=O)C8=O)CC6)C5)CC4)ncc3Cl)ccc2n(C(C)C)c1=O (stereo not drawn) [compound 436] = < 10 nM

**Q:** Using known records, supply IC50 for CCCn1c(=O)c(OCC(=O)NC)cc2cc(Nc3nc(N4CCC[C@H](COc5cccc6c5C(=O)N(C5CCC(=O)NC5=O)C6=O)C4)ncc3Cl)ccc21 (stereo partly drawn) [compound 318]
**A:** 50 to 100 nM

----------
target: BCL6 (Homo sapiens (Human), UniProt P41182); assay: Immunofluorescence high content imaging of BCL6 degradation in T47D cells; format: cell-based; settings: T47D cells
Endpoint: IC50

1) CCn1c(=O)c(OCC(=O)NC)cc2cc(Nc3nc(N4CCN([C@H]5C[C@H](COc6ccc7c(c6)C(=O)N(C6CCC(=O)NC6=O)C7=O)N(C)C5)CC4)ncc3Cl)ccc21 (stereo partly drawn) [compound 371] = ≥ 100 nM
2) CNC(=O)COc1cc2cc(Nc3nc(N4CCC(CN5CC6(CCN(c7cccc(C(=O)NC8CCC(=O)NC8=O)c7F)CC6)C5)CC4)ncc3Cl)ccc2n(C(C)C)c1=O (stereo not drawn) [compound 440] = < 10 nM
3) CNC(=O)COc1cc2cc(Nc3nc(N4CCC(OC5CC6(CCN(c7ccc8c(c7)C(=O)N(C7CCC(=O)NC7=O)C8=O)CC6)C5)CC4)ncc3Cl)ccc2n(C(C)C)c1=O (stereo not drawn) [compound 390] = < 10 nM

**Q:** Param request: IC50 | system BCL6 (Homo sapiens (Human), UniProt P41182) | item CC[C@H]1CN(c2ncc(Cl)c(Nc3ccc4c(c3)cc(OCC(=O)NC)c(=O)n4C(C)C)n2)C[C@@H](COc2ccc3c(c2)C(=O)N(C2CCC(=O)NC2=O)C3=O)O1 (stereo partly drawn) [compound 394]
**A:** < 10 nM

**Q:** Fetch value of IC50 on BCL6 (Homo sapiens (Human), UniProt P41182) for CNC(=O)COc1cc2cc(Nc3nc(N4CCC(OC5CC6(C5)CN(c5ccc(C(=O)NC7CCC(=O)NC7=O)c(OC)c5)C6)CC4)ncc3Cl)ccc2n(C(C)C)c1=O (stereo not drawn) [compound 429] .
**A:** < 10 nM

**Q:** Report IC50 from BCL6 (Homo sapiens (Human), UniProt P41182) testing of CNC(=O)COc1cc2cc(Nc3nc(N4CCN(CC5CCN(C(=O)c6ccc(N7CCC(=O)NC7=O)cc6)CC5)CC4)ncc3Cl)ccc2n(C(C)C)c1=O [compound 402]
**A:** ≥ 100 nM

----------
molecular target: BCL6 (Homo sapiens (Human)); test: Immunofluorescence high content imaging of BCL6 degradation in T47D cells; assay type: cell-based; conditions: class symbols A-D, read-out: EC50 (nM)*
Recorded DC50 for the following compounds

In the examples that follow, each entry is paired with its recorded DC50.
1. CNC(=O)COc1cc2cc(Nc3nc(N4CCC(OCCOCCOCCNc5cccc6c5C(=O)N(C5CCC(=O)NC5=O)C6=O)CC4)ncc3Cl)ccc2n(C)c1=O (stereo not shown) [compound 57] = > 100 nM
2. Cn1c(=O)ccc2cc(Nc3nc(N4CCC(CN5CCN(c6ccc7c(c6)C(=O)N(C6CCC(=O)NC6=O)C7=O)CC5)CC4)ncc3Cl)ccc21 (stereo not shown) [compound 150] = > 100 nM
3. CNC(=O)COc1cc2cc(Nc3nc(N4CCC(Cc5cn(CCOCCOCCOCCOCCOc6ccc7c(c6)C(=O)N(C6CCC(=O)NC6=O)C7=O)nn5)CC4)ncc3Cl)ccc2n(C)c1=O (stereo not shown) [compound 132] = > 100 nM
4. CNC(=O)COc1cc2cc(Nc3nc(N4CCC(CN5CCN(c6ccc7c(c6)CN(C6CCC(=O)NC6=O)C7=O)CC5)CC4)ncc3Cl)ccc2n(C)c1=O (stereo not shown) [compound 151] = 10 to 50 nM
5. CC(=O)COc1cc2cc(Nc3nc(N4CCC(N(C)C5CCN(c6ccc7c(c6)C(=O)N(C6CCC(=O)NC6=O)C7=O)CC5)CC4)ncc3Cl)ccc2n(C)c1=O (stereo not shown) [compound 169] = < 10 nM
6. CNC(=O)COc1cc2cc(Nc3nc(N4CCC(N(C)[C@H]5CC[C@@H](CN6CCN(c7ccc8c(c7)CN(C7CCC(=O)NC7=O)C8=O)CC6)CC5)CC4)ncc3Cl)ccc2n(C)c1=O (stereo partly shown) [compound 102] = < 10 nM
7. CNC(=O)COc1cc2cc(Nc3nc(N4CCC(OCCOc5ccc6c(c5)CN(C5CCC(=O)NC5=O)C6=O)CC4)ncc3Cl)ccc2n(C)c1=O (stereo not shown) [compound 71] = 50 to 100 nM
8. CNC(=O)COc1cc2cc(Nc3nc(N4CCC(c5cn(CCOc6ccc7c(c6)C(=O)N(C6CCC(=O)NC6=O)C7=O)nn5)CC4)ncc3Cl)ccc2n(C)c1=O (stereo not shown) [compound 106] = 10 to 50 nM
9. CNC(=O)COc1cc2cc(Nc3nc(N4CCC(Cc5cn(CCOCCOCCOCCOCCOCC(=O)N[C@H](C(=O)N6C[C@H](O)C[C@H]6C(=O)N[C@@H](C)c6ccc(-c7scnc7C)cc6)C(C)(C)C)nn5)CC4)ncc3Cl)ccc2n(C)c1=O [compound 124] = 50 to 100 nM
10. Cn1c(=O)n(CCC(C)(C)O)c2cc(Nc3nc(N4CCC(CN5CCN(c6ccc7c(c6)C(=O)N(C6CCC(=O)NC6=O)C7=O)CC5)CC4)ncc3Cl)ccc21 (stereo not shown) [compound 149] = > 100 nM

**Q:** Return the recorded DC50 value; entry: CNC(=O)COc1cc2cc(Nc3nc(N4CCC(OCCOc5ccc6c(c5)C(=O)N(C5CCC(=O)NC5=O)C6=O)CC4)ncc3Cl)ccc2n(C)c1=O (stereo not shown) [compound 72]
**A:** 50 to 100 nM

**Q:** Please list DC50 recorded for the compound CNC(=O)COc1cc2cc(Nc3nc(N4CCC(OCCOCCCOCCCOc5ccc6c(c5)CN(C5CCC(=O)NC5=O)C6=O)CC4)ncc3Cl)ccc2n(C)c1=O (stereo not shown) [compound 147]
**A:** > 100 nM

**Q:** Check the records and state DC50 for CNC(=O)COc1cc2cc(Nc3nc(N4CCC(OCCCOCCCOc5ccc6c(c5)CN(C5CCC(=O)NC5=O)C6=O)CC4)ncc3Cl)ccc2n(C)c1=O (stereo not shown) [compound 140]
**A:** > 100 nM

**Q:** Please list DC50 recorded for the compound CC(=O)COc1cc2cc(Nc3nc(N4CC(OCCN5CCN(c6ccc7c(c6)C(=O)N(C6CCC(=O)NC6=O)C7=O)CC5)C4)ncc3Cl)ccc2n(C)c1=O (stereo not shown) [compound 172]
**A:** > 100 nM
